Biological target: T1, human CDH6 on cells (human, UniProt P55285 54-790)
T1 sequence: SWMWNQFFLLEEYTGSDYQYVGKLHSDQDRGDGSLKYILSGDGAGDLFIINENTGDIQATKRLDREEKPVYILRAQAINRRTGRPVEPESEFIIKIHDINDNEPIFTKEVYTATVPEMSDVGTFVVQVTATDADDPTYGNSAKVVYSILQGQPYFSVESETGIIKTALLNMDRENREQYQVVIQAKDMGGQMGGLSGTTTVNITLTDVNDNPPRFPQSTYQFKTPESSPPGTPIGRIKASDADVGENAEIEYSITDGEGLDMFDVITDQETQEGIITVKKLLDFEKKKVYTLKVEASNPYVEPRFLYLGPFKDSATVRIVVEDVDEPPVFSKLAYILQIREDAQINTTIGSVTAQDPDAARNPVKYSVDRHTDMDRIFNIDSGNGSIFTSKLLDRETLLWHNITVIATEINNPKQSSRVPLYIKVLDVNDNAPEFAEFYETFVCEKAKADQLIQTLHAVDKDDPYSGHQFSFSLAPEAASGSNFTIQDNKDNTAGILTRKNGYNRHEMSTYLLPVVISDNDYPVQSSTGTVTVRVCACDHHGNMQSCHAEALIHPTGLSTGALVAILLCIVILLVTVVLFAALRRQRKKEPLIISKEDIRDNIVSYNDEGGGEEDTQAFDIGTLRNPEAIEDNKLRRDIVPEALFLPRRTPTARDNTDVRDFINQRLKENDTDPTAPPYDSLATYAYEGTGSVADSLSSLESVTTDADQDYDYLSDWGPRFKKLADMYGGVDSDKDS
Test: cell-based or functional assay
parameter.measured: percent inhibition at 1.22 nM ADC, NCIH661 cells

binder="NOV0672-SMCC-DM1 (antibody, human IgG1, lambda, V domains shown, SMCC-DM1 on primary amines, sites not stated) VH: QVQLLESGGGLVQPGGSLRLSCAASGFTFNTYGIHWVRQAPGKGLEWVSYIHYSGSSTYYADSVKGRFTISRDNSKNTLYLQMNSLRAEDTAVYYCARHAYGYMDFWGQGTLVTVSS VL: DIALTQPASVSGSPGQSITISCTGTSSDVGAYNYVSWYQQHPGKAPKLMIYGVSKRPSGVSNRFSGSKSGNTASLTISGLQAEDEADYYCQSYDHLLHVVFGGGTKLTVLG" value=-6.14%
binder="NOV0682-SMCC-DM1 (antibody, human IgG1, kappa, V domains shown, SMCC-DM1 on primary amines, sites not stated) VH: QVQLVESGGGLVKPGGSLRLSCAASGFTFSSYAISWVRQAPGKGLEWVGFIKSNADGYTTNYAAPVKGRFTISRDDSKNTLYLQMNSLKTEDTAVYYCARIRYFRNWDYWGQGTLVTVSS VL: DIQMTQSPSSLSASVGDRVTITCRASQTINSYLNWYQQKPGKAPKLLIYRASNLQSGVPSRFSGSGSGTDFTLTISSLQPEDFATYYCQQGDSSWTFGQGTKVEIKR" value=16.4%
binder="NOV0705-SMCC-DM1 (antibody, human IgG1, lambda, V domains shown, SMCC-DM1 on primary amines, sites not stated) VH: QVQLVQSGAEVKKPGESLKISCKGSGYSFTNYWIGWVRQMPGKGLEWMGFIDPGVSYTRYSPSFQGQVTISADKSISTAYLQWSSLKASDTAMYYCARVLAHSTEYNWPAFWGQGTLVTVSS VL: DIVLTQPPSVSGAPGQRVTISCSGSSSNIGLDYVNWYQQLPGTAPKLLIYRNKQRPSGVPDRFSGSKSGTSASLAITGLQAEDEADYYCQAWAGRTNYVVFGGGTKLTVLG" value=-3.15%
binder="NOV0712-SMCC-DM1 (antibody, human IgG1, kappa, V domains shown, SMCC-DM1 on primary amines, sites not stated) VH: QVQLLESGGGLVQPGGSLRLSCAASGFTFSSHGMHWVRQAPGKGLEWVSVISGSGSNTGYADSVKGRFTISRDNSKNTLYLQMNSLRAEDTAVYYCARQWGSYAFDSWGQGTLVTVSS VL: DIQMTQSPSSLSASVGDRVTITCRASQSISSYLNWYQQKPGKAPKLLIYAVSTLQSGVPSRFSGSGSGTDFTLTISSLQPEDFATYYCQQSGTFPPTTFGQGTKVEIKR" value=32.5%
binder="NOV0713-SMCC-DM1 (antibody, human IgG1, lambda, V domains shown, SMCC-DM1 on primary amines, sites not stated) VH: QVQLQQSGPGLVKPSQTLSLTCAISGDSVSSNSAAWNWIRQSPSRGLEWLGRIYYRSKWYNDYAVSVKSRITINPDTSKNQFSLQLNSVTPEDTAVYYCARGLVGRYGQPYHFDVWGQGTLVTVSS VL: DIELTQPPSVSVSPGQTASITCSGDNLRSYYVHWYQQKPGQAPVLVIYGNNKRPSGIPERFSGSNSGNTATLTISGTQAEDEADYYCGVYTLSSVVFGGGTKLTVLG" value=-9.74%
